Test: Ligand binding assay by ANS displacement, CBD
Details: FIG. 8; 2 μM protein, 20 μM ANS, 33 μM ligand, 20° C.
recorded-metric: binding to CBD by ANS displacement (relative change in fluorescence)

[[record]]
molecule = "30 (protein, Micractinium conductrix) MAYSGRWYEVASLKRGFAGEGQQDCHCTQGIYTPKEGGPEGAIKLEVDTFCVHGGPGGRLSGIQGSVSCADPLLLSYLPEFQTEMEMVEGFVAKCALRFDSLAFLPPEPYVVLRTDYTSYALVRGAKDRSFVQIYSRTPNPGAKFIAEQKAVLGQLGYPANDIVDTPQDCPEMAPQ"
recorded_result = "bind to both THC and CBD"

[[record]]
molecule = "1 (protein, Cluster63 Unique) MTSTEKKDMKAVKGLDLERYMGRWYEIASFPSRFQPKDGVDTRATYTLNPDGTVHVLNETWNGGKRGFIQGSAYKADPKSDEAKLKVKFFVPPFLPVIPVTGDYWVLYIDPEYQHAVIGQPSRSYLWILSRTAHMEEETYKQLVEKAVEEGYDVSKLHKTPQSDTPPESNTAPDDTKGVWWLKSIFGK"
recorded_result = "bind to both THC and CBD"

[[record]]
molecule = "10 (protein, Micractinium conductrix) MHVSTRQPCGAAPTAWPAQRPRSSPRRLACSAVLRDDARGVLQQAGLKLAAAAAAVLLAAPLHAGAASMPANAPLPALPPAPFDIEQSKQSKLLFDPMAYSGRWYEVASLKRGFAGEGQQDCHCTQGIYTPKEGGPEGAIKLEVDTFCVHGGPGGRLSGIQGSVSCADPLLLSYLPEFQTEMEMVEGFVAKCALRFDSLAFLPPEPYVVLRTDYTSYALVRGAKDRSFVQIYSRTPNPGAKFIAEQKAVLGQLGYPANDIVDTPQDCPEMAPQAMMAAMNRGMSSTPTMPASTPPALAMAGYDLGPAAVVLGEEAPAPVKGIAFDRLRNPLESLKNVFSLFN"
recorded_result = "bind to both THC and CBD"

